Test system: HCT-15
protocol_details: NCI tumour cell line growth inhibition, 48 h
Provide the reported GI50 of each item.
Numbers only, in µM.

Below, 3 molecules whose answers are already recorded.
C[Si](C)(OCCS(=O)(=O)O)C1S(=O)(=O)OCCOS1(=O)=O: 67.5
CC1=NOC(=O)/C1=C/c1ccc2c(c1)OCO2: 20.8
COC1C(O)C(C)OC(O[C@@H]2C[C@H]3CC[C@@H]4[C@H](CC[C@]5(C)[C@@H](C6=CC(=O)OC6)CC[C@]45O)[C@@]3(C)[C@H](O)C2)C1O (stereo not given in full): 0.0826

For the 2 molecules below, give their GI50 values.
1. COCCOCCOC1=C(Cl)C(=O)c2c(O)ccc(O)c2C1=O
2. O=C1C(S(=O)(=O)c2ccccc2)=C(CS(=O)(=O)c2ccccc2)[C@@H](OCc2ccccc2)[C@@H]1OCc1ccccc1

Result:
1.61
18.2

----------
System: U-251
protocol_details: NCI tumour cell line growth inhibition, 48 h
Active and inactive are the calls of the source. Cut-off read from the data, not from the text of the source: active = GI50 up to about 1.1 µM and inactive = higher. Where a SMILES comes first, the peptide text is derived from it. The star is where a group is joined. Boc = CC(C)(C)OC(=O)*; nBu = CCCC*
assay_readout: GI50

Examples with answers:
CCCCOc1ccc(CC(NC(=O)OC(C)(C)C)C(=O)NC(C)C(=O)NC(Cc2ccccc2)C(=O)NCC(N)=O)cc1 (configuration not stated) (Boc-Y(nBu)AFG-NH2; configuration not given here): 59.4 µM (inactive)
CCCC[S+]([O-])CCC(N)C(=O)O (configuration not stated): > 100 µM (inactive)

State the recorded GI50 for every item in the following list.
1. COc1ccc(NC2=CC(=O)C(=O)c3ccccc32)nn1
2. CCN(CC)Cc1sc2nc3ccccc3n2c1-c1ccc(OC)cc1
3. Cc1nc2ccccc2nc1-c1ccc(/N=[N+](\[O-])c2ccc(-c3nc4ccccc4nc3C)cc2)cc1
4. NC(=O)Cc1nc2c(N)ncnc2n1C1OC(CO)C(O)C1O (configuration not stated)
5. CC1(C)Oc2ccc3c(=O)cc(-c4ccc(F)cc4)oc3c2C1C(=O)O (configuration not stated)

Result:
["1.52 µM (inactive)", "29.2 µM (inactive)", "27.5 µM (inactive)", "> 100 µM (inactive)", "> 100 µM (inactive)"]

----------
System: HL-60
protocol_details: NCI tumour cell line growth inhibition, 48 h
Activity calls are given as the source filed them. No stated cut-off is given here; in the data, active = GI50 up to about 1.1 µM and inactive = higher.
Valid outcomes are listed here; reply with one: True (active), False (inactive)

NNC(=O)/C(NC(=O)c1ccccc1)=C(\N)c1cccc([N+](=O)[O-])c1: False
COc1cc([C@@H]2c3cc4c(cc3[C@@H](OC(=O)c3cccc(N)c3)C3COC(=O)[C@@H]32)OCO4)cc(OC)c1O (stereo partly drawn): False
COc1ccc2nc(-c3ccc(OCc4ccccc4)cc3)ccc2c1: False
Clc1ccc(/C=N/C23CC4CC(CC(C4)C2)C3)cc1Cl: False

Attention now turns to another entry.
Request: What was the test verdict on `N#CC1(C#N)C(C#N)(C#N)C12CCCCCC2` ?
Result: False

----------
System: KM12
protocol_details: NCI tumour cell line growth inhibition, 48 h
Activity calls are given as the source filed them. Cut-off read from the data, not from the text of the source: active = GI50 up to about 1.1 µM and inactive = higher.
Would you mind telling me the reported GI50 of each entry?

Known results for compounds:
Oc1c(Br)cc(CN(Cc2cc(Br)c(O)c(Br)c2)C2CCCCC2)cc1Br: > 100 µM (inactive)
COc1ccc(C(=O)OCC2OC(n3cnc4c(=S)nc[nH]c43)C(OC(=O)c3ccc(OC)cc3)C2OC(=O)c2ccc(OC)cc2)cc1 (stereo not given): 45.6 µM (inactive)
Cc1ccc2[nH]c3c(C)c4cc[n+](C)cc4c(C)c3c2c1: 0.67 µM (active)
CCOC(=O)/C=C/C1OC(C)(C)OC1/C=C/C(=O)OCC (stereo not given): 25.4 µM (inactive)

Now consider the entry below.
Reported GI50 of `Oc1ccccc1-c1n[nH]c(-c2ccccc2O)n1` : 1.49 µM (inactive)

----------
Test system: K562
protocol_details: NCI tumour cell line growth inhibition, 48 h
Activity calls are given as the source filed them. Rule as the data show it: active = GI50 up to about 1.1 µM and inactive = higher. *1 amine or outer side, *2 acyl side, *3 side chain or, on linkers, in order; H or OH if unused. Where a SMILES comes first, the peptide text is derived from it. Bridges are numbered along the chain shown (N, C = ends). [ ]: non-standard residue; d: D form. The star is where a group is joined. X56 = CC(C)C(C)C(C(=O)[*:2])N(C)[*:1]; Picolinoyl(3-OH) = O=C(c1ncccc1O)*; NMePhg = CN[CH](C(=O)O)c1ccccc1; Hyp = O=C(O)[CH]1C[CH](O)CN1; Sar = CNCC(=O)O
assay_readout: GI50

CCC1c2[nH]c3ccccc3c2C[C@H]2C(=O)NC(CCCCNC(=O)OC(C)(C)C)C(=O)N12 (stereo partly drawn): 35.8 µM (inactive)
O=C(CCC(=O)N/N=C/c1ccccc1O)N/N=C/c1ccccc1O: > 100 µM (inactive)
C[N+]1(Cc2ccc(Cl)c(Cl)c2)CCCC1C1CCCN(Cc2ccc(Cl)c(Cl)c2)C1 (stereo not drawn): 52.4 µM (inactive)
O=C(c1ccc(Cl)cc1Cl)N(C(=O)N1CCC(c2ccccc2)CC1)c1ccccc1: 34.4 µM (inactive)
O=C(O)CSc1ccc2nc3ccccc3c(O)c2c1: > 100 µM (inactive)
OC1=C(c2ccccc2)C2=NCCN2c2ccccc21: 21.8 µM (inactive)
NC(=O)Cc1nc2c(N)ncnc2n1C1OC(CO)C(O)C1O (stereo not drawn): > 100 µM (inactive)
CN/N=C(/Cc1occc(=O)c1O)C(=O)Nc1ccccc1C: > 100 µM (inactive)

Go through the items and report each one's GI50.
1. NC(=S)N/N=C(\CCC(=O)Nc1ccccc1[N+](=O)[O-])CC(=O)c1ccco1
2. C[Si](C)(OCCS(=O)(=O)O)C1S(=O)(=O)OCCOS1(=O)=O
3. CC(C)(C)OC(=O)N1CCCC1C(=O)NC(c1ccccc1)c1ccccc1 (stereo not drawn)
4. COc1ccc(C2C3CCCC(C3=O)C(c3ccc(OC)cc3)N2N=O)cc1 (stereo not drawn)

Result:
1. > 100 µM (inactive)
2. 70 µM (inactive)
3. > 100 µM (inactive)
4. 23.9 µM (inactive)

For each listed entry, give its GI50.
1. COc1ccc(NC(=O)C(=O)C(CC2C(=O)NC(=S)NC2=O)C(=O)c2ccc3ccccc3c2)c([N+](=O)[O-])c1 (stereo not drawn)
2. CC(C)CC1NC(=O)C(NC(=O)c2ncccc2O)C(C)OC(=O)C(c2ccccc2)N(C)C(=O)C(C)NC(=O)C(C(C)C(C)C)N(C)C(=O)CN(C)C(=O)C2CC(O)CN2C1=O (stereo not drawn) ({Picolinoyl(3-OH)}-TL[Hyp][Sar][X56]A[NMePhg]; ester 1-C; configuration not given here)
3. CCOC(=O)C(=O)Nc1cc(Cl)ccc1Cl
4. COc1ccc(NC2=CC(=O)C(=O)c3ccccc32)nn1
5. COC(=O)Nc1nc2ccc(S(=O)(=O)SC)cc2[nH]1
6. CCCCCC(=O)OCC1(CO)C/C(=C\CC(C(C)C)C(C)C)C(=O)O1 (stereo not drawn)
7. CC1(C)OCC(C2OC3OC(C)(C)OC3C2c2ccccc2)O1 (stereo not drawn)
8. COC(=O)C(=O)C(C#N)c1nc2ccccc2s1 (stereo not drawn)

Result:
["> 100 µM (inactive)", "61.8 µM (inactive)", "> 100 µM (inactive)", "0.224 µM (active)", "4.86 µM (inactive)", "24.1 µM (inactive)", "30.2 µM (inactive)", "57.4 µM (inactive)"]

----------
Hi there, I'd appreciate the recorded GI50 for every entry that follows.
Test system: COLO 205
protocol_details: NCI tumour cell line growth inhibition, 48 h
Calls of active or inactive are those of the source. No stated cut-off is given here; in the data, active = GI50 up to about 1.1 µM and inactive = higher.

Dear colleague, could you please provide GI50 for the molecules listed below?
1. NC(=S)N/N=C(\CCC(=O)Nc1ccccc1[N+](=O)[O-])CC(=O)c1ccco1
2. O=c1c2ccccc2nnn1-c1n[nH]c2ccccc12
3. CC(=O)C1C(=O)C(=O)N(c2ccc(Cl)c(Cl)c2)C1=O (stereo unspecified)

Result:
["> 100 µM (inactive)", "> 100 µM (inactive)", "> 100 µM (inactive)"]

----------
Test system: ACHN
protocol_details: NCI tumour cell line growth inhibition, 48 h
The source made the active and inactive calls. No stated cut-off is given here; in the data, active = GI50 up to about 1.1 µM and inactive = higher.
assay_readout: GI50

CC(=O)C1C(=O)C(=O)N(c2ccc(Cl)c(Cl)c2)C1=O (stereo not given): > 100 µM (inactive)
CCCCc1ccc(Nc2nc(Cl)c3[nH]cnc3n2)cc1: 20.8 µM (inactive)
C/C(=C1\C(=O)C(c2ccccc2)N(c2ccccc2)C1=O)c1ccc(Cl)cc1 (stereo not given): 19.3 µM (inactive)
CCC1c2[nH]c3ccccc3c2C[C@H]2C(=O)NC(CCCCNC(=O)OC(C)(C)C)C(=O)N12 (stereo not given in full): 35.9 µM (inactive)
CC1(C)OCC(C2OC3OC(C)(C)OC3C2c2ccccc2)O1 (stereo not given): 51.9 µM (inactive)

Count: 5. Required value per item: GI50.
1. CCCN1CC=CCC1
2. COc1ccc2c3c([nH]c2c1)CCN(CCCC(=O)c1ccc(F)cc1)C3
3. CN=[S+]([O-])(c1ccccc1)c1ccccc1
4. CCOP(=O)(OCC)C(C(=O)OC)C(=O)C(=O)Nc1c(C)cc(Br)cc1C (stereo not given)
5. Cc1cc(C)nc(NS(=O)(=O)c2ccc(Nc3c4ccccc4nc4c(C(=O)Nc5ccc(S(=O)(=O)Nc6cc(C)on6)cc5)cccc34)cc2)n1

Result:
> 100 µM (inactive)
17.1 µM (inactive)
> 100 µM (inactive)
> 100 µM (inactive)
35.2 µM (inactive)
